Where do these numbers come from? They come from ChEMBL document CHEMBL1201862.

# Tested on: MCF7
# assay comment: NCI tumour cell line growth inhibition, 48 h
Calls of active or inactive are those of the source. No stated cut-off is given here; in the data, active = GI50 up to about 1.1 µM and inactive = higher.
Parameter call: string, one of active, inactive

Worked examples follow.
CCOc1ccc(/N=N/c2ccc(-c3ccc(/N=N/c4c(O)ccc5cc(S(=O)(=O)O)cc(S(=O)(=O)O)c45)cc3)cc2)cc1 = inactive
COc1cc2c(cc1OCCCNC(=O)c1cc3ccccc3[nH]1)N=C[C@@H]1CCCN1C2=O = active
CC(=O)NNc1nc(C)c(C(/C=C/c2ccccc2O)=N/NC(=O)c2ccncc2)s1 = inactive
COc1ccccc1N1C(=O)C2C3c4ccccc4C(OC(C)=O)(c4ccccc43)C2C1=O (configuration not stated) = inactive
CC1CC[C@@]2(OC1)O[C@H]1[C@H](O)[C@H]3[C@@H]4CC[C@H]5C[C@@H](OC6OC(CO)C(OC7OC(CO)C(O)C(OC8OCC(O)C(O)C8O)C7OC7OC(CO)C(O)C(O)C7OC7OC(CO)C(O)C(O)C7O)C(O)C6O)[C@H](O)C[C@]5(C)[C@H]4CC[C@]3(C)[C@H]1[C@@H]2C (some centres not stated) = inactive

Challenge: Short answer needed: outcome of this test for `Clc1ccccc1NN(Cc1ccncc1)c1ccccc1Cl` ?
Response given: inactive

Challenge: Short answer needed: outcome of this test for `CCNc1cc2oc(=O)cc(C(F)(F)F)c2cc1C` ?
Response given: inactive

---

Quick reference for GI50 among some compounds
# Tested on: SK-MEL-28
# assay comment: NCI tumour cell line growth inhibition, 48 h
Active and inactive are the calls of the source. Rule as the data show it: active = GI50 up to about 1.1 µM and inactive = higher.

Challenge: Supply measured GI50 of CC(=O)NC(CCCN(Cc1ccccc1)C(=O)N(CCCl)N=O)C(=O)NCc1ccccc1 (stereo not given) in your reply.
Response given: 78.3 µM (inactive)

Challenge: Supply measured GI50 of Cc1ccc(S(=O)(=O)C(C#N)c2nc3ccccc3nc2-n2ccnc2)cc1 (stereo not given) in your reply.
Response given: > 100 µM (inactive)

Challenge: Supply measured GI50 of `COC(=O)c1cc2c(o1)Sc1ccccc1NC2=O` in your reply.
Response given: > 100 µM (inactive)

Challenge: Supply measured GI50 of COC(=O)C(=O)C(C(=O)C(=O)Nc1nc2ccc(C)cc2s1)c1nc2ccc([N+](=O)[O-])cc2nc1O (stereo not given) in your reply.
Response given: > 100 µM (inactive)

Challenge: Supply measured GI50 of `COc1ccc(OC)c2[nH]c(Sc3c([N+](=O)[O-])ncn3C)nc12` in your reply.
Response given: 24.3 µM (inactive)

---

# Test system: UACC-62
# assay comment: NCI tumour cell line growth inhibition, 48 h
Active and inactive are the calls of the source. No stated cut-off is given here; in the data, active = GI50 up to about 1.1 µM and inactive = higher.
Quick reference for GI50 among some compounds

Field: example entries. Status: answers known.
C=C1CC=CC(C)(C)C1C/C=C(\C)C(O)CBr (centres undefined) = 53.7 µM (inactive)
OCN(CO)c1ccc2c(c1)Cc1cc(F)ccc1-2 = 16.6 µM (inactive)

Challenge: Supply measured GI50 of C[C@]12c3c4cc(NC(=O)C(=O)NCc5ccc(-c6ccccn6)nc5)cc3Oc3cc(NC(=O)C(=O)NCc5ccc(-c6ccccn6)nc5)cc(c31)OC1C=C(NC(=O)C(=O)NCc3ccc(-c5ccccn5)nc3)C=C(O4)C12 (some centres undefined) in your reply.
Response given: 24.5 µM (inactive)

Challenge: Supply measured GI50 of `[O-][s+]1c2c(Cc3ccccc3)c(Cc3ccccc3)c1CCc1cccc(c1)CC2` in your reply.
Response given: 10.9 µM (inactive)

---

# Test system: RPMI-8226
# assay comment: NCI tumour cell line growth inhibition, 48 h
Calls of active or inactive are those of the source. Rule as the data show it: active = GI50 up to about 1.1 µM and inactive = higher.
Parameter call: string, one of T for active, F for inactive

Worked examples follow.
C[n+]1cn(C2=C([N-]S(=O)(=O)c3ccccc3)C(=O)c3ccccc3C2=O)c2ccccc21 = F
O=C(/N=C(/Nc1ccccc1)SCS/C(=N\C(=O)c1ccco1)Nc1ccccc1)c1ccco1 = F
NC(=O)C[C@H](NC(=O)C1(NC(=O)[C@H](Cc2ccc(CP(=O)(O)O)cc2)NC(=O)C(=O)O)CCCCC1)C(=O)NCCCc1cccc2ccccc12 = F

Let's switch to this compound now.
Challenge: Short answer needed: outcome of this test for COc1ccccc1N1C(=O)C2C3c4ccccc4C(OC(C)=O)(c4ccccc43)C2C1=O (stereo not drawn) ?
Response given: F

---

# Test system: SK-MEL-28
# assay comment: NCI tumour cell line growth inhibition, 48 h
Activity calls are given as the source filed them. Cut-off read from the data, not from the text of the source: active = GI50 up to about 1.1 µM and inactive = higher.
measured attribute: GI50

CCCCCCCOc1ccc(/C=C\c2cc[n+](CCCCCCCC[n+]3ccc(/C=C\c4ccc(OCCCCCCC)cc4)cc3)cc2)cc1 = 17.6 µM (inactive)
CCOC(=O)/C(=N/Nc1ccc(C)cc1)N1C(=S)N(C)N=C(C)C=C1S = > 100 µM (inactive)
O=C1CC(c2ccc(Cl)cc2)C2(C(=O)NC(=S)NC2=O)C(c2ccc(Cl)cc2)C1 (centres undefined) = 16.1 µM (inactive)
NC(=O)CCC(N=C(N)c1csc(C2OC(CO)C(O)C2O)n1)C(=O)O (centres undefined) = > 100 µM (inactive)
CC(C)[C@H](NC(=O)[C@H](N)Cc1ccc(N(CCCl)CCCl)cc1)C(=O)O = > 100 µM (inactive)
CC1=C2C(O)C(C(C)C(=O)NCC(C)C)CCC2(C)C=CC1=O (centres undefined) = > 100 µM (inactive)

Challenge: Supply measured GI50 of `Cn1cc(NC(=O)c2cc(NC(=O)CCCCCCCC(=O)Nc3cc(C(=O)Nc4cc(C(=O)NCCC(=N)N)n(C)c4)n(C)c3)cn2C)cc1C(=O)NCCC(=N)N` in your reply.
Response given: 11.7 µM (inactive)

Challenge: Supply measured GI50 of CC1(C)OCC2OC3(c4nc(C#N)c(N)o4)OC(C)(C)OC3C2O1 (centres undefined) in your reply.
Response given: > 100 µM (inactive)

Challenge: Supply measured GI50 of COc1cccc(C2c3cc4c(cc3OC(N3CCOCC3)C2C)OCO4)c1OC (centres undefined) in your reply.
Response given: 13.4 µM (inactive)

---

# Tested on: SNB-78
# assay comment: NCI tumour cell line growth inhibition, 48 h
Calls of active or inactive are those of the source. Cut-off read from the data, not from the text of the source: active = GI50 up to about 1.1 µM and inactive = higher.
measured attribute: GI50

Cc1oc2c(c1C(=O)c1ccccc1)C(=O)c1ccccc1C2=O = > 100 µM (inactive)
COc1ccc(OC(C(=O)O)c2ccccc2)c2c1CCCC2=O (stereo unspecified) = > 100 µM (inactive)
CC#N.O[C@@H]1CCCC[C@H]1O.O[C@@H]1CCCC[C@H]1O.[TeH2] = > 100 µM (inactive)
CCOC(=O)C1=C(Nc2ccc(NC3=C(C(=O)OCC)C(=O)CS3)cc2)SCC1=O = 33.6 µM (inactive)

Challenge: Supply measured GI50 of CC(=O)[C@]1(O)Cc2c(O)c3c(c(O)c2[C@@H](OC2CC(N)C(O)C(C)O2)C1)C(=O)c1c(OCc2ccccc2)cccc1C3=O (stereo partly specified) in your reply.
Response given: 4.38 µM (inactive)

Challenge: Supply measured GI50 of `Cc1nc2c(n1Cc1ccc(F)cc1)C(=O)c1ccccc1C2=O` in your reply.
Response given: > 100 µM (inactive)

---

Quick reference for GI50 among some molecules
# System: SW-620
# assay comment: NCI tumour cell line growth inhibition, 48 h
Active and inactive are the calls of the source. Cut-off read from the data, not from the text of the source: active = GI50 up to about 1.1 µM and inactive = higher.

O=C1N2Cc3c4ccc5c3CN3C(=O)N6Cc7c(ccc(c7CN1C6(c1ccccc1)C23c1ccccc1)OCCOCCNCCOCCO4)OCCOCCNCCOCCO5 (stereo unspecified) = 18 µM (inactive)
Nc1cc(C(=O)O)nc(O)n1 = > 100 µM (inactive)
CCCC(=O)OCC1(CO)C/C(=C/CC(C(C)C)C(C)C)C(=O)O1 (stereo unspecified) = > 100 µM (inactive)
COc1ccc(OC(C(=O)O)c2ccccc2)c2c1CCCC2=O (stereo unspecified) = > 100 µM (inactive)
O=C1NC(N2CCCC(CO)C2)=N/C1=C\c1ccccc1 (stereo unspecified) = > 100 µM (inactive)
O=C(/C=C/c1ccsc1)c1cccs1 = 17.3 µM (inactive)

Challenge: Supply measured GI50 of `CN(C)CCn1cnc2sc3ccccc3c21` in your reply.
Response given: > 100 µM (inactive)

Challenge: Supply measured GI50 of `O=C(NCCNCCO)N/N=C/c1ccc([N+](=O)[O-])cc1` in your reply.
Response given: > 100 µM (inactive)

Challenge: Supply measured GI50 of `COc1cc2c(cc1OCCCNC(=O)c1cc3ccccc3[nH]1)N=C[C@@H]1CCCN1C2=O` in your reply.
Response given: 0.378 µM (active)

Challenge: Supply measured GI50 of O=C1c2ccccc2OCC1/C=N/O (stereo unspecified) in your reply.
Response given: > 100 µM (inactive)

Challenge: Supply measured GI50 of `O=c1oc2ncccc2n1Cc1ccc([N+](=O)[O-])cc1` in your reply.
Response given: > 100 µM (inactive)
